Cited source for all entries: patent US10590086B2

- Study system: IDO (Homo sapiens)
- Sequence (P14902 whole entry): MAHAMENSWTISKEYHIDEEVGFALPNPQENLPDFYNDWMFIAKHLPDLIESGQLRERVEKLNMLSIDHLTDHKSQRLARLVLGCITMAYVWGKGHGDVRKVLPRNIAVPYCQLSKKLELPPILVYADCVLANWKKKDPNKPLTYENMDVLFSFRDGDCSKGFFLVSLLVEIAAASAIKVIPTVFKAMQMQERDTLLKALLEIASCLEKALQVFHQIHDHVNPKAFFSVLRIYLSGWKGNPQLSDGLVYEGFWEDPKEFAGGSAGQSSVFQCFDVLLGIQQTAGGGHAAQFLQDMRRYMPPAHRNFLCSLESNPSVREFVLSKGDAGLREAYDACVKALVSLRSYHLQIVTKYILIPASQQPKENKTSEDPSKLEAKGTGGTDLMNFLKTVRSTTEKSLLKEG
- Test details: SKOV3 kynurenine cell-based assay (IDO induced by IFN-γ)
- Set-up: IDO expression was induced in the SKOV3 cells by the addition of 500 ng/ml IFN-γ; endogenous in cells; host or cells: SKOV3 (human ovarian adenocarcinoma), induced with IFN-γ
- Measurement setup: SKOV3 human ovarian adenocarcinoma cells, 500 ng/ml IFN-γ, 48 hours, 500 μM L-tryptophan; read-out: SKOV3 Kynurenine cell based assay pIC50 (converted)
Observable: IC50

Entry CC(=O)NCc1ccc(-c2cc(Cl)cc3[nH]ncc23)cc1 [Compound 276] has what IC50?
3.24 to 31.6 µM

Entry O=C1NCCC12CCN(c1cc(Cl)cc3[nH]ncc13)CC2 [Compound 189] has what IC50?
3.24 to 31.6 µM

Entry CC(C)c1cc(N2CCN(S(C)(=O)=O)CC2)c2cn[nH]c2c1 [Compound 67] has what IC50?
32.4 to 100 µM

Entry CC(=O)NC1CCN(c2cc(Cl)cc3[nH]ncc23)C1 (stereo not shown) [Compound 198] has what IC50?
3.24 to 31.6 µM

Entry CC(=O)N1CCN(c2cc(C(C)C)cc3[nH]ncc23)CC1(C)C [Compound 147] has what IC50?
3.24 to 31.6 µM

Entry CC(=O)N(C)C1CCN(c2cc(Cl)cc3[nH]ncc23)CC1(C)C (stereo not shown) [Compound 450] has what IC50?
< 3.16 µM

Entry CC1(C)CN(c2cc(C(F)(F)F)cc3[nH]ncc23)CCN1S(C)(=O)=O [Compound 78] has what IC50?
< 3.16 µM

Entry CC(=O)N1CCN(c2cc(C3CCCC3)cc3[nH]ncc23)CC1(C)C [Compound 149] has what IC50?
3.24 to 31.6 µM

Entry C[C@@H]1CN(S(C)(=O)=O)CCN1c1cc(C(F)(F)F)cc2[nH]ncc12 [Compound 208] has what IC50?
3.24 to 31.6 µM

Entry O=C(C1COC1)N1CCC(c2cc(Cl)cc3[nH]ncc23)CC1 [Compound 205] has what IC50?
> 100 µM

Entry CN(c1cc(C2CCN(S(C)(=O)=O)CC2)c2cn[nH]c2c1)S(C)(=O)=O [Compound 338] has what IC50?
> 100 µM

Entry CS(=O)(=O)N1CCN(c2cc(C3CC3)cc3[nH]ncc23)CC1 [Compound 101] has what IC50?
> 100 µM

Entry CNCCNc1cc(Cl)cc2[nH]ncc12 [Compound 156] has what IC50?
32.4 to 100 µM

Entry O[C@@H]1CCCC[C@@H]1c1cc(Cl)cc2[nH]ncc12 [Compound 419] has what IC50?
> 100 µM

Entry CS(=O)(=O)N1CCCN(c2cc(Cl)cc3[nH]ncc23)CC1 [Compound 72] has what IC50?
3.24 to 31.6 µM

Entry CN(C1CCN(c2cc(Cl)cc3[nH]ncc23)CC1)S(C)(=O)=O [Compound 117] has what IC50?
3.24 to 31.6 µM

Entry CCCS(=O)(=O)N1CCN(c2cc(Cl)cc3[nH]ncc23)CC1 [Compound 63] has what IC50?
3.24 to 31.6 µM

Entry CC1(C)CC(c2cc(C(F)(F)F)cc3[nH]ncc23)CCN1S(C)(=O)=O (stereo not shown) [Compound 154] has what IC50?
3.24 to 31.6 µM

Entry O=S(=O)(C1CCCC1)N1CCN(c2cccc3[nH]ncc23)CC1 [Compound 17] has what IC50?
32.4 to 100 µM
